Recorded Ratio IC50 for the following molecules
species on record: Homo sapiens; test: Selectivity index, ratio of IC50 for CDK2/cyclinA (unknown origin) to IC50 for Chk1 (unknown origin)

Sample records with Ratio IC50:
INSERT INTO measurements (molecule, observed_property, result) VALUES
  ('O=c1[nH]c2sc(Cl)cc2c(NC2CCCNC2)c1-c1nc2ccccc2[nH]1 (centres undefined)', 'Ratio IC50', '> 20'),
  ('COc1ccc2[nH]c(-c3c(NC4CN5CCC4CC5)c4cc(Cl)sc4[nH]c3=O)nc2c1 (centres undefined)', 'Ratio IC50', 100),
  ('O=c1[nH]c2sc(Br)cc2c(NC2CCCNC2)c1-c1nc2ccccc2[nH]1 (centres undefined)', 'Ratio IC50', '> 20');

Supply Ratio IC50 value. Item: O=c1[nH]c2ccsc2c(NC2CCCNC2)c1-c1nc2ccccc2[nH]1 (centres undefined)
> 20
